# Test system: HL-60(TB) leukemia
# Assay name: NCI tumour cell line growth inhibition, 48 h
Rule: TGI of 10 µM or more gives True; anything lower gives False.

* O=Cc1[nH]c(=O)[nH]c(=O)c1C(=O)O | True
* Cc1nn(-c2ccc(Cl)cc2)c2nc3c(nc12)C(=O)c1ccccc1-3 | True
* CC(=O)c1c(C)n([O-])c2cc(Cl)c(Cl)cc2[n+]1=O | True
* Cc1ccc(-n2c(N)c(C#N)c3[nH]nc(N)c3c2=O)cc1 | True
* Cc1ccc(NC(=O)CC2CC2)cc1-c1ccc(C(=O)NCC2CC2)cc1 | True
* CCOC(=O)c1nnc2c(C(=O)OCC)c3ccccc3n2c1N | False
* CC1CN(C(=O)CN2CCC(CCCCN(C)C)CC2)c2ccccc2NC1=O (centres undefined) | True
* O=c1[nH]nc(Cc2ccccc2)n1/N=C/c1ccccc1O | True
* COc1cc(-c2cc(-c3cc4c([nH]c5ccccc54)c(-c4cc(OC)c(OC)c(OC)c4)n3)cc(-c3ccccc3)n2)cc(OC)c1OC | True
* CNCC#Cc1c(F)ccc2c1/C(=C/c1[nH]ccc1OC)C(=O)N2 | False
* CCCCCCc1cc2cc(C(=O)Nc3ccccc3)c(=N)oc2cc1O | True
* COC(=O)/C=C(\C)CC(O)/C=C(\C)CCC=C(C)C (centres undefined) | True
* Nc1c(C(=O)Nc2ccncc2)sc2nc3c(cc12)CCCCCCCC3 | False
* CCOC(=O)Nc1ccc(C)c(NC(=O)OCC)c1 | True

---

# Test system: DMS 114 small cell lung
# Assay name: NCI tumour cell line growth inhibition, 48 h
Known TGI of a selection of molecules
Value type: TGI (µM)

• COc1cc(NS(C)(=O)=O)ccc1Nc1c2ccccc2nc2c1[nH]c1ccc(NC3OC(CO)C(O)C(O)C3O)cc12 (stereo not given) = 0.0784
• O=C(/C=C/c1cccc2ccccc12)c1ccccc1Cl = 27.6

---

Recorded TGI by entry
# Tested on: M14 melanoma
# Assay name: NCI tumour cell line growth inhibition, 48 h
Value type: TGI

- COc1ccc(NC(=O)/C(Cc2cc(=O)oc3cc(O)ccc23)=N\NC(C)(C)C)c(OC)c1: > 100 µM
- CC(=O)OC12C=CC(=O)N1c1ccccc1C(=O)O2 (centres undefined): > 100 µM
- COc1c(OC[C@H](O)CN2CCOCC2)ccc2c3n(c(=NC(=O)c4cccnc4C)nc12)CCN3: > 50 µM
- CN(C)CCCC12CCCCC1=Nc1ccccc12 (centres undefined): > 100 µM
- CC1(CCOCc2ccccc2)NC(=O)NC1=O (centres undefined): > 100 µM
- CC[C@H]1[C@@H]2C=C[C@@H]3[C@H]4C/C=C\C(=O)NCCC[C@@H]5NC(=O)/C(=C(O)/C=C/[C@@H]4C[C@@H]3[C@H]2C[C@H]1C)C5=O: 3.08 µM
- Oc1[nH]c2ccccc2c1N=NC(=S)Nc1cccc(Cl)c1: 24.7 µM
- CC(C)C(=O)OCC1OC(n2c(Br)nc3c(=O)[nH]c(N)nc32)C(OC(=O)C(C)C)C1OC(=O)C(C)C (centres undefined): > 100 µM
- COc1ccc2c(c1)C(=O)c1c-2c(N2CCN(C(=O)CNCCNCCO)CC2)nc2ccccc12: 3.33 µM

---

Parameter GI50: see the listing below.
# Tested on: HS 578T breast
# Assay name: NCI tumour cell line growth inhibition, 48 h
Value type: GI50

• COc1ccc(-c2nn(-c3ccc(NC(=O)c4ccc(Cl)c(Cl)c4)cc3)cc2-c2ccncc2)cc1Cl = 1050 nM
• CCOC(=O)Nc1ccc(-c2nc(-c3cccc(OCCN4CCOCC4)c3)c(-c3ccnc(Br)c3)[nH]2)cc1 = 1550 nM
• CO/N=C(\COc1ccc2c(c1)oc(=O)c1cc(OC)ccc12)c1ccc(OC)cc1 = > 100000 nM
• Cc1ccc(NC(=O)CC2CC2)cc1-c1ccc(C(=O)NCC2CC2)cc1 = > 25000 nM
• Cc1ncc(C(=O)Nc2ccc(CN3CCN(C)CC3)c(C(F)(F)F)c2)cc1C#Cc1cnc(N)c2ccncc12 = 984 nM
• Oc1cc2cccc[n+]2c2cc(Cl)ccc12 = 84500 nM
• CNCC#Cc1c(F)ccc2c1/C(=C/c1[nH]ccc1OC)C(=O)N2 = 195 nM
• COc1ccc(C(=O)/C=C/c2cc(-c3cc(OC)c(OC)c(OC)c3)n[nH]2)cc1OC = 2570 nM
• COc1cc(-n2cc(-c3ccc(F)cc3)[nH]c2=O)cc(OC)c1OC = 69300 nM
• C=C(C)[C@@H]1CC[C@]2(C)[C@H](CC=C3[C@@H]4CC(C)(C)CC[C@]4(C(N)=O)CC[C@]32C)[C@@]1(C)CCC#N = 3280 nM
• COc1cccc2c1C(=O)c1c(O)c3c(c(O)c1C2=O)C[C@](O)(C(=O)CO)C[C@H]3O[C@@H]1C[C@@H](NC(=O)CCCCCN(C)C2(c3ccc(F)cc3)CC3CCC2C3)[C@H](O)[C@@H](C)O1 (stereo not given in full) = 8260 nM
• COc1ccc2[nH]cc(C3(c4c[nH]c5ccc(OC)cc45)C(=O)Nc4ccc(F)cc43)c2c1 = 3130 nM
• O=C1OCC2=C1C(c1cccc(Br)c1)c1cc3c(cc1N2CCO)CCC3 (stereo not given) = 151 nM
• COc1ccc(-c2nc3ccc(-c4nc5ccc(N6CCN(c7ccccc7)CC6)cc5[nH]4)cc3[nH]2)cc1OC = 2250 nM
• COc1cc(F)ccc1-c1ncnc(Nc2cccc(CS(C)(=N)=O)c2)n1 (stereo not given) = 1210 nM

---

# Tested on: TK-10 renal
# Assay name: NCI tumour cell line growth inhibition, 48 h
Value type: TGI

* CCSc1ncnc2c1ncn2C1OC(CO)C(O)C1O (stereo unspecified) | > 100 µM
* OCC1OC(c2nc(C3=NCCCN3)cs2)C(O)C1O (stereo unspecified) | > 100 µM
* CCOC(=O)C(Cc1ccc(CCCC(=O)NCCC(=O)Nc2ccc3nc(C)sc3c2)cc1)C(=O)OCC | > 100 µM
* C#C[C@]1(O)CCC2C3CCc4cc(O)ccc4C3CC[C@@]21C (stereo partly specified) | > 100 µM
* O=C1CCCC1CN1CCCC1 (stereo unspecified) | 25.1 µM
* O=C1/C(=C/c2ccc3c(c2)OCO3)SC2C=Nc3ccccc3N12 (stereo unspecified) | > 100 µM
* CCCCNC(=S)Nc1nc(C(=O)NNC(=S)Nc2ccccc2)cs1 | > 100 µM
* CCCNC(=S)NNC(=O)CSc1nc(-c2ccccc2)c(-c2ccccc2)[nH]1 | > 100 µM
* Cn1cc(C2=C(c3cn(CCCCO)c4ccccc34)C(=O)NC2=O)c2ccccc21 | > 25 µM
* O=c1[nH]nc(Cc2ccccc2)n1/N=C/c1ccccc1O | > 100 µM
* CC(=O)OC12C=CC(=O)N1c1ccccc1C(=O)O2 (stereo unspecified) | > 100 µM
* Cc1c(N=Nc2ccc(Cl)cc2)c(-c2ccccc2)n(C2OC(CO)C(O)C(O)C2O)c(=S)c1C#N (stereo unspecified) | 44.4 µM
* COc1cccc2c1C(=O)c1c(O)c3c(c(O)c1C2=O)C[C@](O)(C(=O)CO)C[C@H]3O[C@@H]1C[C@@H](NC(=O)CCCCCN(C)C2(c3ccc(F)cc3)CC3CCC2C3)[C@H](O)[C@@H](C)O1 (stereo partly specified) | 1.28 µM
* COc1c(OC[C@H](O)CN2CCOCC2)ccc2c3n(c(=NC(=O)c4cccnc4C)nc12)CCN3 | > 50 µM
* COc1cc2c(cc1OCCCNC(=O)c1cccc3c(=O)c4ccccc4[nH]c13)N=C[C@@H]1CCCN1C2=O | 2.66 µM
* CN=C1CC2c3cc(OC)c(OC)cc3CCN2C2=C1C(=O)CC(C)(C)C2 (stereo unspecified) | > 100 µM
* C=C(Cl)C(Br)(CCl)CCC(Br)C(C)(C)Cl (stereo unspecified) | 24.6 µM
* COc1ccc(-c2nn(-c3ccc(NC(=O)c4ccc(Cl)c(Cl)c4)cc3)cc2-c2ccncc2)cc1Cl | > 50 µM
* CCOC(=O)C(=[N+]=[N-])[Si](C)(C)C | > 100 µM
* Cc1ccc(-n2c(N)c(C#N)c3[nH]nc(N)c3c2=O)cc1 | > 100 µM
* Fc1cc(-c2cc(-c3ccccc3)no2)c(Cl)cc1Cl | > 51.7 µM
* Cc1cc(Cl)ccc1NC(=O)C(=O)Cc1nc2ccccc2o1 | > 100 µM
* N#Cc1c(N)n(-c2cccc(C(=O)O)c2)c(=O)c2cc([N+](=O)[O-])ccc12 | > 100 µM
* O=C(O)C(NCc1ccccc1)C(NCc1ccccc1)C(=O)O (stereo unspecified) | > 100 µM
* CCCCCCOC(=O)/C=C/[C@]1(CO)C/C(=C/CC(C(C)C)C(C)C)C(=O)O1 | 14 µM
* CCN1CCC(O)(c2ccc(OC)cc2)C(C(=O)c2ccc(OC)cc2)C1 (stereo unspecified) | 10.4 µM
* CC(=O)c1c(C)n([O-])c2cc(Cl)c(Cl)cc2[n+]1=O | 71.3 µM
* Cc1ccc(/C=C/C(=O)c2sc(-c3nc(C)c(C(=O)/C=C/c4ccc(C)cc4)s3)nc2C)cc1 | > 100 µM
* [N-]=[N+]=N[C@H]1C[C@@H](CO)O[C@H]1n1cnc2c(N)ncnc21 | > 100 µM
* Cn1c(=O)c2c(nc(Cc3ccccc3)n2CC(=O)O)n(C)c1=O | > 100 µM
* CC(C)=CC[C@]12CCN[C@H]1N(S(=O)(=O)c1ccccc1)c1ccccc12 | > 100 µM
* CCOc1ccccc1NC(=O)C(=O)CC(=O)c1sc(Nc2nnc(-c3ccc(Cl)c(Cl)c3)o2)nc1C | > 100 µM
* CCOC(=O)NC(Nc1ccc(S(=O)(=O)Nc2nc(C)cc(C)n2)cc1)(C(=O)OCC)C(F)(F)F (stereo unspecified) | > 100 µM
* CC(C)(C)OC(=O)[C@H]1CCC(=S)N1Cc1ccccc1 | > 100 µM
* O=C(CCc1n[nH]c(=S)o1)Nc1ccccc1C(F)(F)F | > 100 µM
* CSc1ncnc2c1ncn2CCC(=O)OC(C)(C)C | > 100 µM
* Cc1ccccc1N1C(=O)C2C=CC(n3[nH]c(=O)n(Cc4ccccc4)c3=O)CC2C1=O (stereo unspecified) | > 100 µM
* COc1cc2c(c(OC)c1OC)-c1ccc(SC)c(=O)cc1C(NC=O)CC2 (stereo unspecified) | > 100 µM
* CN(C)CCCC12CCCCC1=Nc1ccccc12 (stereo unspecified) | > 100 µM
* COc1ccc(-c2nc3ccc(-c4nc5ccc(N6CCN(c7ccccc7)CC6)cc5[nH]4)cc3[nH]2)cc1OC | 4.42 µM
* O=[N+]([O-])c1ccc2c(c1)C1=C(CO2)Cc2ccccc2O1 | 57 µM
